- testDescription: qHTS Assay for Inhibitors of Hepatitis C Virus (HCV); further: potency means the concentration at half of the fitted maximal effect
- settings: Huh7.5.1 HCVcc-Cre infection, luciferase reporter, 44 h; series mostly up to 41.8 µM
Screen size: about 340,000 compounds; about 12,000 (3.5%) were called active. Another 18% or so got no clear call; they are omitted. This excerpt belongs to a sample that is enriched for actives.
observationType: Potency

Some compounds with known Potency results, for comparison:
- compound: "COc1ccc(C)cc1NC(=O)NCc1ccccn1"
  measValue: "inactive"
- compound: "CCS(=O)(=O)c1cc([N+](=O)[O-])c(Sc2ccccc2N)s1"
  measValue: "7.08 µM (active)"
- compound: "CCn1c(COc2ccccc2)nnc1SCC(=O)Nc1ccc2c(c1)OCCO2"
  measValue: "inactive"
- compound: "CCN(CC(=O)Nc1ccccc1C(=O)NC1CC1)Cc1cccs1"
  measValue: "inactive"
- compound: "N#CCC(=O)Nc1ccc(C(=O)OCC(=O)Nc2sc3c(c2C#N)CCCC3)cc1"
  measValue: "inactive"
- compound: "CCOc1ccc(NC(=O)Nc2cc(C)ccc2OC)cc1"
  measValue: "11.2 µM (active)"
- compound: "COc1ccc(NC(=O)/C(N=Nc2cccc(S(=O)(=O)Nc3ccc(SC(F)F)cc3)c2)=C(\\C)O)cc1"
  measValue: "inactive"
- compound: "O=C(c1ccncc1)N1CCN(S(=O)(=O)c2cc(C(F)(F)F)cc(C(F)(F)F)c2)CC1"
  measValue: "inactive"

We now examine a further compound.
stdin: Determine from records and report Potency for C=CCOc1cccc(C2C(C(=O)c3ccc(C)o3)=C(O)C(=O)N2CCCn2ccnc2)c1 (stereo unspecified)
stdout: inactive

====

- testDescription: qHTS Assay for Inhibitors of Hepatitis C Virus (HCV); further: potency means the concentration at half of the fitted maximal effect
- settings: Huh7.5.1 HCVcc-Cre infection, luciferase reporter, 44 h; series mostly up to 41.8 µM
- Description: Hepatitis C virus (HCV) infects about 200 million people in the world. Many infected people progress to chronic liver disease including cirrhosis with a risk of developing liver cancer. To date, there is no effective vaccine for hepatitis C. Current therapy based on interferon is only effective in about half of the patients and is associated with significant adverse effects. The fraction of people with HCV who can complete a successful treatment is estimated to be no more than 10 percent. […]
The whole screen tested about 340,000 compounds, of which about 12,000 (3.5%) were called active. Another 18% or so got no clear call; they are omitted. The full list was thinned out, with actives kept by preference.
observationType: Potency

- compound: "Cc1ccc(NC(=O)c2cc3ccccc3o2)cc1"
  observationType: "Potency"
  measValue: "inactive"
- compound: "O=C(NC(Nc1nc2ccc([N+](=O)[O-])cc2s1)(C(F)(F)F)C(F)(F)F)c1ccccc1"
  observationType: "Potency"
  measValue: "0.562 µM (active)"
- compound: "C/C(=N\\NC(=S)Nc1ccc(C)cc1)c1cc2ccccc2o1"
  observationType: "Potency"
  measValue: "10 µM (active)"
- compound: "O=C(/C=C/c1ccccc1)c1ccoc1"
  observationType: "Potency"
  measValue: "inactive"
- compound: "COc1cccc(CNC(=O)COC(=O)CN2C(=O)NC3(CCCCC3C)C2=O)c1 (stereo not given)"
  observationType: "Potency"
  measValue: "inactive"
- compound: "O=C(Cc1ccc(Br)cc1)NCCc1ccccc1"
  observationType: "Potency"
  measValue: "inactive"
- compound: "Cc1nn(-c2ccc(F)cc2)c(Cl)c1/C=C(/CCC(=O)O)c1nc2ccccc2s1"
  observationType: "Potency"
  measValue: "inactive"
- compound: "Cc1cccc(N2CCN(c3ccc(C(N)=O)cc3[N+](=O)[O-])CC2)c1C"
  observationType: "Potency"
  measValue: "inactive"
- compound: "C=CCN1C=C(C(=O)c2ccccc2)C(=O)CC1"
  observationType: "Potency"
  measValue: "inactive"
- compound: "O=C(COC(=O)COc1cc(Cl)c(Cl)cc1Cl)NC1CC1"
  observationType: "Potency"
  measValue: "inactive"

stdin: Tell me Potency reported for O=[N+]([O-])c1ccc(S(=O)(=O)Nc2cccc(-c3ccc(N4CCCC4)nn3)c2)cc1
stdout: inactive

stdin: For CC(C)(Oc1ccc(Cl)cc1)C(=O)OCC(=O)NCCc1ccc(S(N)(=O)=O)cc1 , write its Potency.
stdout: inactive

stdin: Supply measured Potency of O=C(NNC(=O)c1ccc2ccccc2c1)c1ccc(Cl)cc1 in your reply.
stdout: inactive

stdin: Give the measured Potency for CC(=O)N1CCc2ccc(N)cc21
stdout: inactive

stdin: Recall and state the measured Potency for O=C(CCNC(=O)c1ccc(Br)cc1)NCCCc1ccccc1 .
stdout: inactive

stdin: Tell me Potency reported for CS(=O)(=O)N1CCN(c2ccc(C(=O)NC3C4CC5CC(C4)CC3C5)cc2[N+](=O)[O-])CC1 (stereo not given)
stdout: 11.2 µM (active)

stdin: Name the recorded Potency of the item O=C(NCCCN1CCOCC1)c1ccc(N2CCCC2)c([N+](=O)[O-])c1 in your answer.
stdout: inactive

stdin: Give the value of Potency reported for the following: CCOC(=O)C1CCN(c2ccc(C(=O)O)cc2[N+](=O)[O-])CC1
stdout: inactive

stdin: Given the compound O=C1C=C(c2ccnc3cc(Cl)ccc23)C[C@@H](c2ccc3c(c2)OCO3)C1 , write its reported Potency.
stdout: 3.16 µM (active)

stdin: Return value of Potency for input COc1ccc(S(=O)(=O)N2CCOCC2)cc1NC(=O)CSc1nnc(NC2CC2)s1 , no commentary.
stdout: inactive

Source listed as PubChem BioAssay AID651820.
